- System: neurotoxicity (rotarod)
- run.description: Neurotoxicity test (TOX), rotarod, mice
- Type: in vivo
- study.conditions: mice, dose 100 mg/kg b.w., time 0.5 h
Structures can show the parent of a compound that is named as a salt.
property: TOX, No. of animals exhibiting motor impairment/no. of used animals

molecule="Cc1cccc(C)c1OCCNCC(O)c1ccccc1 (stereo not shown)" test_result=8/8
molecule="Cc1cccc(OCCCNCC(O)c2ccccc2)c1C (racemic)" test_result=6/8
molecule="CCC(O)CNCCOc1ccc(Cl)cc1C (stereo not shown)" test_result=7/8
molecule="CCC(CO)NCCOc1ccc(Cl)cc1C (stereo not shown)" test_result=8/8
molecule="Cc1cc(C)c(OCCN[C@@H]2CCCC[C@H]2O)c(C)c1 (relative stereo)" test_result=8/8

Inquiry: # get_value(readout='TOX, No. of animals exhibiting motor impairment/no. of used animals', item= Cc1cccc(C)c1OCCN(C)CC(O)c1ccccc1.Cl (racemic) )
Reply text: 8/8

Inquiry: # get_value(readout='TOX, No. of animals exhibiting motor impairment/no. of used animals', item= `Cc1cccc(OCCNC(C)(C)CO)c1C` )
Reply text: 7/8

Inquiry: # get_value(readout='TOX, No. of animals exhibiting motor impairment/no. of used animals', item= Cc1cccc(C)c1OCCN[C@H](CO)C(C)C [Compound 16, hydrochloride] )
Reply text: 7/8

Inquiry: # get_value(readout='TOX, No. of animals exhibiting motor impairment/no. of used animals', item= Cc1cccc(C)c1OCCNCCCCCO [Compound 17, hydrochloride] )
Reply text: 7/8

Inquiry: # get_value(readout='TOX, No. of animals exhibiting motor impairment/no. of used animals', item= `Cc1cccc(C)c1OCCNC[C@@H](O)c1ccccc1` )
Reply text: 7/8

---

Listed molecules paired with reported TOX, No. of animals exhibiting motor impairment/no. of used animals
- Tested on: neurotoxicity (rotarod)
- run.description: Neurotoxicity test (TOX), rotarod, mice
- Type: in vivo
- study.conditions: mice, dose 30 mg/kg b.w., 0.5 h

Use these answered entries as a reference point.
molecule="Cc1cccc(C)c1OCCCNCC(O)c1ccccc1 (racemic)" test_result=2/4
molecule=Cc1cccc(C)c1OCC(=O)N[C@@H](C)CO test_result=1/4
molecule=Cc1cccc(C)c1OCCCNC(C)(C)CO test_result=1/4

Below: the item to evaluate.
Inquiry: # get_value(readout='TOX, No. of animals exhibiting motor impairment/no. of used animals', item= Cc1cccc(Cl)c1OCCCNC(C)CO (racemic) )
Reply text: 4/4

---

- System: neurotoxicity (rotarod)
- run.description: Neurotoxicity test (TOX), rotarod, mice
- Type: in vivo
- study.conditions: mice, dose 300 mg/kg b.w., time 0.5 h
property: TOX, No. of animals exhibiting motor impairment/no. of used animals

Use these answered entries as a reference point.
compound="Cc1cccc(C)c1OCCNC[C@H](O)c1ccccc1 [Compound 20]" test_result=4/4
compound="Cc1cccc(C)c1OCCN(C)CC(O)c1ccccc1.Cl (racemic) [Compound 22]" test_result=4/4

Below: the item to evaluate.
Inquiry: Please provide the recorded TOX, No. of animals exhibiting motor impairment/no. of used animals for Cc1cccc(Cl)c1OCCN[C@@H]1CCCC[C@H]1O (relative stereo) [Compound 30] , tested on neurotoxicity (rotarod).
Reply text: 4/4

---

- System: neurotoxicity (rotarod)
- run.description: Neurotoxicity test (TOX), rotarod, mice
- Type: in vivo
- study.conditions: mouse, in vivo, 100 mg/kg
property: TOX, No. of animals exhibiting motor impairment/no. of used animals

Use these answered entries as a reference point.
compound="CCC(CO)NCCOc1cc(C)cc(C)c1C (centres unmarked) [Compound 39]" test_result=7/8
compound="Cc1cccc(C)c1OCCN[C@@H](C)CO.Cl [Compound 13a]" test_result=8/8
compound="Cc1cccc(Cl)c1OCCNC(C)(CO)CO [Compound 29]" test_result=4/8

Inquiry: # get_value(readout='TOX, No. of animals exhibiting motor impairment/no. of used animals', item= Cc1cccc(C)c1OCCNC(C)CO (centres unmarked) [Compound 11] )
Reply text: 8/8

Inquiry: # get_value(readout='TOX, No. of animals exhibiting motor impairment/no. of used animals', item= Cc1cccc(C)c1OCCNC(C)CO.Cl (centres unmarked) [Compound 11a] )
Reply text: 8/8
